// values below are reported IC50
Tested on: MCF-7 cells
Assay: Inhibition of MCF-7 cell proliferation (CTG/ATP method)
Type: cell-based
Conditions: Homo sapiens, MCF7, 144 h, read-out: IC50 (nM), inhibitory activity on MCF-7 cell proliferation
reported metric: IC50 (nM)

>>> quantitative_readout("C[C@]12CC[C@@H]3c4ccc(O)cc4C[C@@H](CCCCCCCCC[S+]([O-])CCCC(F)(F)C(F)(F)F)[C@H]3[C@@H]1CC[C@@H]2O (some centres unmarked) [Fulvestrant, reference compound]")
1.9
>>> quantitative_readout("O=C(O)c1ccc2c(c1)CCCC(c1ccc(Cl)cc1Cl)=C2c1ccc(O[C@H]2CCN(CCCF)C2)cc1 [SAR439859, reference compound]")
3.9

###

Test: in vivo
Settings: female, Sprague-Dawley (SD), rat, brain/plasma, po, 10 mg/kg
reported metric: Kp at 4 h

>>> quantitative_readout("COc1cc(F)ccc1[C@H]1CSc2cc(O)ccc2[C@H]1c1ccc(OCCN2CC(CF)C2)cc1 [Example 18]")
14.1

###

Test: Pharmacokinetics in rats, oral
Format: in vivo, SD rats
Settings: Sprague-Dawley (SD), plasma, rat, 10 mg/kg
reported metric: half-life

>>> result("COc1cc(F)ccc1[C@H]1CSc2cc(O)ccc2[C@H]1c1ccc(OCCN2CC(CF)C2)cc1")
"535 min"
